- PROCEDURE_TEXT: Inhibition of Escherichia coli undecaprenyl diphosphate synthase
pIC50: −log10 of the molar value.
ATTRIBUTE_MEASURED: pIC50

Look at this compound and give its reported pIC50. CC(C)=CCC/C(C)=C/CNCCNC1C2CC3CC(C2)CC1C3 (stereo unspecified) [SQ109]
≤ 4.30

* * *

- TESTED_TARGET: Trehalose monomycolate exporter MmpL3 (Mycolicibacterium smegmatis)
- Sequence (A0QP27 whole entry): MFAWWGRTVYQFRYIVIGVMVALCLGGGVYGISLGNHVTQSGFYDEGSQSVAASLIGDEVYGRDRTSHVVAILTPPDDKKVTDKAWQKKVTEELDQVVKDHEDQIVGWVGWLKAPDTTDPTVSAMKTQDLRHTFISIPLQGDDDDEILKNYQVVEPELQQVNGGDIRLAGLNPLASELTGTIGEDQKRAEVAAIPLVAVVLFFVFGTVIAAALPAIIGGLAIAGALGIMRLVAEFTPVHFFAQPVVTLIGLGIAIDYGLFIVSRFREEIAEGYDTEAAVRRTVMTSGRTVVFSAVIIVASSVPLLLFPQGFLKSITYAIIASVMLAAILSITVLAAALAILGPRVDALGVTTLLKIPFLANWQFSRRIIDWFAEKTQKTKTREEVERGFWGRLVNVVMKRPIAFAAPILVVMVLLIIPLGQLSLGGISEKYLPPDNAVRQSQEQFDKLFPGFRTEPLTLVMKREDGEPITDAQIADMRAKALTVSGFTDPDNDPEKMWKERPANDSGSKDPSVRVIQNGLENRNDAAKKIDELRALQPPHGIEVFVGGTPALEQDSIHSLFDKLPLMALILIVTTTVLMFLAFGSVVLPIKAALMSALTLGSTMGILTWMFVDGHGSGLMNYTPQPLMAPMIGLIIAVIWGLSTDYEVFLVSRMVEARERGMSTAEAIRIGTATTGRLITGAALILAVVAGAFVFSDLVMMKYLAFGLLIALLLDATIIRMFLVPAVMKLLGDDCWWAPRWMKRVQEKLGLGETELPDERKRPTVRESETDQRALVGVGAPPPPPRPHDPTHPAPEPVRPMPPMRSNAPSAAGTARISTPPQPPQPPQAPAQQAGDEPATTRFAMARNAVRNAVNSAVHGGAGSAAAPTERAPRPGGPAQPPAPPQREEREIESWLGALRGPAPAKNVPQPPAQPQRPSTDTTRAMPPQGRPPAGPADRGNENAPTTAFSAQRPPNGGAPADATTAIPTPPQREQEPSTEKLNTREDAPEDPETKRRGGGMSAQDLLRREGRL
- PROCEDURE_TEXT: Binding affinity to Mycobacterium smegmatis MmpL3 by surface plasmon resonance assay
ATTRIBUTE_MEASURED: pKd
Lab note — pKd values are minus log10 of concentrations in M.

Look at this compound and give its reported pKd. CC(C)=CCC/C(C)=C/CNCCNC1C2CC3CC(C2)CC1C3 (stereo unspecified)
3.40

* * *

- TESTED_TARGET: Decaprenyl diphosphate synthase (Mycobacterium tuberculosis, UniProt P9WFF7)
- Sequence (P9WFF7 whole entry): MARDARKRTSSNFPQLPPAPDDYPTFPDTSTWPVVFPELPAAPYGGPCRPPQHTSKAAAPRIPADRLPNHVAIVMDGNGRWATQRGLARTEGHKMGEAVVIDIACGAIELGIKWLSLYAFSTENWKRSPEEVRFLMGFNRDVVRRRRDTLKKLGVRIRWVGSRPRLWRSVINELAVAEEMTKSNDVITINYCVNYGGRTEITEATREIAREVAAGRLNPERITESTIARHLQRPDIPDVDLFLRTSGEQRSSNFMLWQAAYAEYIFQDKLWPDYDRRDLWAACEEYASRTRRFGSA
- PROCEDURE_TEXT: Inhibition of Mycobacterium tuberculosis cis-decaprenyl diphosphate synthase
pIC50: −log10 of the molar value.
ATTRIBUTE_MEASURED: pIC50

Look at this compound and give its reported pIC50. CC(C)=CCC/C(C)=C/CNCCNC1C2CC3CC(C2)CC1C3 (stereo unspecified)
≤ 4.30

* * *

- Tested on: Mycolicibacterium smegmatis
- PROCEDURE_TEXT: Antimycobacterial activity against Mycobacterium smegmatis assessed as inhibition of mycobacterial growth incubated for 48 hrs in presence of 100 uM undecaprenyl phosphate
- Assay type: functional, organism-based
ATTRIBUTE_MEASURED: IC50 (µM)
Please respond with the number in µM and leave the unit unwritten.

Look at this compound and give its reported IC50. CC(C)=CCC/C(C)=C/CNCCNC1C2CC3CC(C2)CC1C3 (stereo unspecified)
14

* * *

- Test system: Mycolicibacterium smegmatis
- PROCEDURE_TEXT: Antimycobacterial activity against Mycobacterium smegmatis assessed as inhibition of mycobacterial growth incubated for 48 hrs in presence of 50 uM menaquinone-7
- Type: functional, organism-based
ATTRIBUTE_MEASURED: pIC50
Lab note — pIC50 values are minus log10 of concentrations in M.

Look up pIC50 with Mycolicibacterium smegmatis for this compound: CC(C)=CCC/C(C)=C/CNCCNC1C2CC3CC(C2)CC1C3 (stereo unspecified) [SQ109]
5.38

* * *

- TESTED_TARGET: Trehalose monomycolate exporter MmpL3 (Mycolicibacterium smegmatis)
- PROCEDURE_TEXT: Binding affinity to C-terminal 10XHis-tagged Mycobacterium smegmatis mc2 155 MmpL3 expressed in Mycobacterium smegmatis mc2 155 cells by microscale thermophoresis analysis
ATTRIBUTE_MEASURED: Kd (µM)
Please respond with the number in µM and leave the unit unwritten.

Look at this compound and give its reported Kd. CC(C)=CCC/C(C)=C/CNCCNC1C2CC3CC(C2)CC1C3 (stereo unspecified)
1.6

* * *

- System: Mycolicibacterium smegmatis
- PROCEDURE_TEXT: Antimycobacterial activity against Mycobacterium smegmatis assessed as inhibition of mycobacterial growth incubated for 48 hrs in presence of 100 uM menaquinone-7
- Type: functional, organism-based
ATTRIBUTE_MEASURED: pIC50
Lab note — pIC50 values are minus log10 of concentrations in M.

Look up pIC50 with Mycolicibacterium smegmatis for this molecule: CC(C)=CCC/C(C)=C/CNCCNC1C2CC3CC(C2)CC1C3 (stereo unspecified)
5.19

* * *

- Test system: Mycolicibacterium smegmatis
- PROCEDURE_TEXT: Antimycobacterial activity against Mycobacterium smegmatis assessed as inhibition of mycobacterial growth incubated for 48 hrs in presence of 12.5 uM undecaprenyl phosphate
- Type: functional, organism-based
ATTRIBUTE_MEASURED: IC50 (µM)
Please respond with the number in µM and leave the unit unwritten.

Look at this compound and give its reported IC50. CC(C)=CCC/C(C)=C/CNCCNC1C2CC3CC(C2)CC1C3 (stereo unspecified) [SQ109]
3.7
